Below: a set of entries, each annotated with reported inhibition at 50 µM.
test system: Bacillus subtilis; assay: antibacterial assay, Mueller–Hinton broth microdilution; assay type: cell-based; settings: primary screening, 50 μM, read-out: Inhibition rate Bacillus subtilis
Entry rule: numbers only, all in %.

{"columns": ["compound", "property_label", "result"],
 "data": [
  ["C=C1C[C@]2(O)[C@@]3(C)CCC(=O)C(C)(C)C3=C(O)C(=O)[C@@]2(C)[C@@H]2C(=O)O[C@@](C)(C(=O)OC)C(=O)[C@@]12C", "inhibition at 50 µM", 8.18]
]}

compound COC(=O)[C@]1(Cc2ccc(O)c(CC=C(C)C)c2)OC(=O)C(O)=C1c1ccc(O)cc1 , inhibition at 50 µM observed: 91.3

The measured inhibition at 50 µM associated with COC(=O)[C@]1(Cc2ccc(O)c(CC(O)C(C)(C)O)c2)OC(=O)C(O)=C1c1ccc(O)cc1 (some centres unmarked) reads 3.76

###

test system: A549 (lung cancer); assay: in vitro cytotoxicity against A549; assay type: cell-based; details: Homo sapiens, A549; primary screening, 50 μM; read-out: Inhibition rate A549
Where a SMILES comes first, the peptide text is derived from it. [ ]: non-standard residue; d: D form. NMeF = CN[CH](Cc1ccccc1)C(=O)O; 2Abz = Nc1ccccc1C(=O)O
property_label: inhibition at 50 µM (%)
Numeric only. Scale: %

Recorded results for 5 compounds are shown here.
{"columns": ["compound", "system_under_test", "unit_of_measurement", "inhibition at 50 µM"],
 "data": [
  ["CC(C)[C@H](C)/C=C/[C@@H](C)[C@H]1CCC2C3=CC(=O)O[C@@]3(O)CC[C@@]21C (stereo partly drawn) [Compound 6, demethylincisterol A2]", "A549 (lung cancer)", "%", 0.41],
  ["CN1C(=O)C(Cc2ccc(O)cc2)NC(=O)CNC(=O)c2ccccc2NC(=O)C1Cc1ccccc1 (stereo not drawn) [Compound 1, asperhiratide] (cyclo([2Abz]GY[NMeF]); configuration not given here)", "A549 (lung cancer)", "%", 4.4],
  ["C=CC(C)(C)[C@@]12C[C@H]3C(=O)Nc4ccccc4C(=O)N3[C@H]1N(C=O)c1ccccc12 [Compound 10, epi-aszonalenins B]", "A549 (lung cancer)", "%", 0.73],
  ["C=C1CCC2CC1C2(C)C1CCC(C)C(=O)O1 (stereo not drawn)", "A549 (lung cancer)", "%", 0.83],
  ["CC(C)[C@H](C)C[C@@H](O)[C@](C)(O)C1CC[C@@]2(O)C3=CC(=O)C4C[C@@H](O)CC[C@]4(C)C3CC[C@]12C (stereo partly drawn)", "A549 (lung cancer)", "%", 8.6]
]}

Next compound, please.
CC(C)=CC=CC(C)C1CCC2(C)CC3C(C)=CC(=O)C3C(C(=O)O)=CCC12 (stereo not drawn) has a reported inhibition at 50 µM of 0.58

###

System: MCF-7 (breast cancer)
Test: in vitro cytotoxicity against MCF-7
Format: cell-based
Conditions: Homo sapiens, MCF7, read-out: IC50 MCF-7
Description: All compounds were evaluated for their in vitro cytotoxicity against four human cancer lines, SF-268 (human glioblastoma carcinoma), MCF-7 (breast cancer), HepG-2 (liver cancer), and A549 (lung cancer), as well as antioxidative activity, α-glucosidase inhibitory activity, and antimicrobial activity against the bacteria Staphylococcus aureus and Bacillus subtilis (Tables S1–S3). […]
property_label: pIC50
Field pIC50 (float): negative decimal logarithm of the concentration in molar.

Per the records, this molecule ( COC(=O)[C@]1(Cc2ccc(O)c(CC=C(C)C)c2)OC(=O)C(O)=C1c1ccc(O)cc1 ) has pIC50 equal to 4.41

###

system: Bacillus subtilis; experiment: antibacterial assay, Mueller–Hinton broth microdilution; format: cell-based; conditions: primary screening, 50 μM, read-out: Inhibition rate Bacillus subtilis
Where a SMILES comes first, the peptide text is derived from it. [ ]: non-standard residue; d: D form. NMeF = CN[CH](Cc1ccccc1)C(=O)O; 2Abz = Nc1ccccc1C(=O)O
Kindly return rule met if reported inhibition at 50 µM is no lower than 80%; return rule not met if it is lower.

Check if inhibition at 50 µM >= 80% (inclusive). Item: CC(C)=CC=CC(C)C1CCC2(C)CC3C(C)=CC(=O)C3C(C(=O)O)=CCC12 (centres unmarked)
rule met

In plain terms: is recorded inhibition at 50 µM at least 80% for CC1C(=O)OCC1CC(OC(=O)c1ccccc1)C(C)(O)C1CCC2(O)C3=CC(=O)C4CC(O)C(O)CC4(C)C3CCC12C (centres unmarked) ?
rule not met

Confirm if inhibition at 50 µM reported for the compound CN1C(=O)C(Cc2ccc(O)cc2)NC(=O)CNC(=O)c2ccccc2NC(=O)C1Cc1ccccc1 (centres unmarked) [Compound 1, asperhiratide] (cyclo([2Abz]GY[NMeF]); configuration not given here) is 80% or above.
rule not met

API: above_or_equal(metric=inhibition at 50 µM, cutoff=80%) for item CC(C)[C@H](C)C[C@@H](O)[C@](C)(O)C1CC[C@@]2(O)C3=CC(=O)C4C[C@@H](O)CC[C@]4(C)C3CC[C@]12C (some centres unmarked)
rule not met
